Numbers sourced from the supplement of paper PMC9112550.

Entries and their shrunken log2 fold change
tested on: Escherichia coli TOP10; assay: shrunken log2 fold change of peptide-encoding DNA abundance (4.5 h post-induction vs induction); higher = less antimicrobial activity (less host growth inhibition); conditions: time post-induction: 4.5 h; library: site-saturation at positions 5, 18, 19, 20

Example results:
- residue_codes: "RRIRARPPRLPRPRPRPVRVPRP"
  shrunken log2 fold change: 0.781
- residue_codes: "RRIRPRPPRLPRPRPRPDRVPRP"
  shrunken log2 fold change: 0.187
- residue_codes: "RRIRTRPPRLPRPRPRPFHCPRP"
  shrunken log2 fold change: -0.179
- residue_codes: "RRIRNRPPRLPRPRPRPSSPPRP"
  shrunken log2 fold change: 0.0179

# context switch: different sequence, same shrunken log2 fold change
Task item: // query shrunken log2 fold change value for entry "RRIRDRPPRLPRPRPRPGQAPRP"
Reply: 0.0989

====

Entries and their shrunken log2 fold change
system: Escherichia coli TOP10; assay: shrunken log2 fold change of peptide-encoding DNA abundance (4.5 h post-induction vs induction); higher = less antimicrobial activity (less host growth inhibition); settings: time post-induction: 4.5 h; library: site-saturation at positions 5, 18, 19, 20
Answer using only a numeral; do not append any unit.

Example results:
- residue_codes: "RRIRIRPPRLPRPRPRPRVVPRP"
  numeric_result: 0.00259
- residue_codes: "RRIRARPPRLPRPRPRPEYRPRP"
  numeric_result: 0.0382
- residue_codes: "RRIRERPPRLPRPRPRPSMVPRP"
  numeric_result: -0.86
- residue_codes: "RRIRIRPPRLPRPRPRPQWWPRP"
  numeric_result: 0.0271

Task item: // query shrunken log2 fold change value for entry "RRIRLRPPRLPRPRPRPERYPRP"
Reply: -0.0429

Task item: // query shrunken log2 fold change value for entry "RRIRKRPPRLPRPRPRPVPFPRP"
Reply: -0.101

Task item: // query shrunken log2 fold change value for entry "RRIRNRPPRLPRPRPRPRMRPRP"
Reply: 0.867

Task item: // query shrunken log2 fold change value for entry "RRIRLRPPRLPRPRPRPQVQPRP"
Reply: -0.0263

Task item: // query shrunken log2 fold change value for entry "RRIRSRPPRLPRPRPRPQAVPRP"
Reply: 0.197

Task item: // query shrunken log2 fold change value for entry "RRIRDRPPRLPRPRPRPIKHPRP"
Reply: -0.373

Task item: // query shrunken log2 fold change value for entry "RRIRWRPPRLPRPRPRPGKTPRP"
Reply: 0.0109

Task item: // query shrunken log2 fold change value for entry "RRIRARPPRLPRPRPRPCYWPRP"
Reply: -0.000727

Task item: // query shrunken log2 fold change value for entry "RRIRRRPPRLPRPRPRPRDVPRP"
Reply: 0.328

Task item: // query shrunken log2 fold change value for entry "RRIRARPPRLPRPRPRPCCDPRP"
Reply: 0.404

Task item: // query shrunken log2 fold change value for entry "RRIRCRPPRLPRPRPRPMAHPRP"
Reply: -0.00655

Task item: // query shrunken log2 fold change value for entry "RRIRYRPPRLPRPRPRPFYGPRP"
Reply: 0.0392

Task item: // query shrunken log2 fold change value for entry "RRIRPRPPRLPRPRPRPSEKPRP"
Reply: -0.0945

Task item: // query shrunken log2 fold change value for entry "RRIRSRPPRLPRPRPRPDMMPRP"
Reply: -0.36

Task item: // query shrunken log2 fold change value for entry "RRIRCRPPRLPRPRPRPDYSPRP"
Reply: -0.179

====

tested on: Escherichia coli TOP10; test: shrunken log2 fold change of peptide-encoding DNA abundance (4.5 h post-induction vs induction); higher = less antimicrobial activity (less host growth inhibition); conditions: time post-induction: 4.5 h; library: site-saturation at positions 5, 18, 19, 20
Entries and their shrunken log2 fold change

- residue_codes: "RRIRSRPPRLPRPRPRPSYLPRP"
  shrunken log2 fold change: -0.707
- residue_codes: "RRIRVRPPRLPRPRPRPFDDPRP"
  shrunken log2 fold change: -0.175

Task item: // query shrunken log2 fold change value for entry "RRIRVRPPRLPRPRPRPQDVPRP"
Reply: -0.033

Task item: // query shrunken log2 fold change value for entry "RRIRVRPPRLPRPRPRPHAEPRP"
Reply: 0.0163

Task item: // query shrunken log2 fold change value for entry "RRIRCRPPRLPRPRPRPAVVPRP"
Reply: -0.243

====

system: Escherichia coli TOP10; experiment: shrunken log2 fold change of peptide-encoding DNA abundance (4.5 h post-induction vs induction); higher = less antimicrobial activity (less host growth inhibition); details: time post-induction: 4.5 h; library: site-saturation at positions 5, 18, 19, 20
Entries and their shrunken log2 fold change
Answer using only a numeral; do not append any unit.

Example results:
- residue_codes: "RRIRTRPPRLPRPRPRPNDIPRP"
  subject_of_test: "Escherichia coli TOP10"
  shrunken log2 fold change: -0.873
- residue_codes: "RRIRTRPPRLPRPRPRPEDVPRP"
  subject_of_test: "Escherichia coli TOP10"
  shrunken log2 fold change: -0.0588
- residue_codes: "RRIRDRPPRLPRPRPRPLDWPRP"
  subject_of_test: "Escherichia coli TOP10"
  shrunken log2 fold change: 0.0834
- residue_codes: "RRIRCRPPRLPRPRPRPPHMPRP"
  subject_of_test: "Escherichia coli TOP10"
  shrunken log2 fold change: 1.56
- residue_codes: "RRIRPRPPRLPRPRPRPMGQPRP"
  subject_of_test: "Escherichia coli TOP10"
  shrunken log2 fold change: 0.0687
- residue_codes: "RRIRQRPPRLPRPRPRPSQQPRP"
  subject_of_test: "Escherichia coli TOP10"
  shrunken log2 fold change: 0.0129
- residue_codes: "RRIRQRPPRLPRPRPRPRWDPRP"
  subject_of_test: "Escherichia coli TOP10"
  shrunken log2 fold change: 0.29
- residue_codes: "RRIRARPPRLPRPRPRPQCHPRP"
  subject_of_test: "Escherichia coli TOP10"
  shrunken log2 fold change: 0.441

Task item: // query shrunken log2 fold change value for entry "RRIRQRPPRLPRPRPRPDFVPRP"
Reply: 0.0112

====

tested on: Escherichia coli TOP10; test: shrunken log2 fold change of peptide-encoding DNA abundance (4.5 h post-induction vs induction); higher = less antimicrobial activity (less host growth inhibition); conditions: time post-induction: 4.5 h; library: site-saturation at positions 5, 18, 19, 20
reported_property: shrunken log2 fold change
Answer using only a numeral; do not append any unit.

- residue_codes: "RRIRRRPPRLPRPRPRPHREPRP"
  reported_property: "shrunken log2 fold change"
  numeric_result: -0.0451

# context switch: different sequence, same shrunken log2 fold change
Task item: // query shrunken log2 fold change value for entry "RRIRSRPPRLPRPRPRPSCFPRP"
Reply: -0.197

====

tested on: Escherichia coli TOP10; experiment: shrunken log2 fold change of peptide-encoding DNA abundance (4.5 h post-induction vs induction); higher = less antimicrobial activity (less host growth inhibition); conditions: time post-induction: 4.5 h; library: site-saturation at positions 5, 18, 19, 20;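 also: peptides expressed intracellularly from a pBAD plasmid library in pooled LB shake-flask culture, induced with 0.3% L-arabinose, DNA abundance read by NGS, three biological replicates, DESeq2 with apeglm shrinkage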
Tick satisfied if shrunken log2 fold change is 0.006 or greater. Tick not satisfied if shrunken log2 fold change is less than 0.006.

- residue_codes: "RRIRCRPPRLPRPRPRPCHCPRP"
  label: "not satisfied"
- residue_codes: "RRIRDRPPRLPRPRPRPLCTPRP"
  label: "satisfied"
- residue_codes: "RRIRKRPPRLPRPRPRPFEAPRP"
  label: "satisfied"

Task item: Form field: shrunken log2 fold change at least 0.006? Entry: "RRIRLRPPRLPRPRPRPFWNPRP"
Reply: not satisfied

Task item: Form field: shrunken log2 fold change at least 0.006? Entry: "RRIRERPPRLPRPRPRPHGWPRP"
Reply: satisfied

Task item: Form field: shrunken log2 fold change at least 0.006? Entry: "RRIRIRPPRLPRPRPRPNSSPRP"
Reply: not satisfied

Task item: Form field: shrunken log2 fold change at least 0.006? Entry: "RRIRRRPPRLPRPRPRPHNSPRP"
Reply: satisfied

Task item: Form field: shrunken log2 fold change at least 0.006? Entry: "RRIRKRPPRLPRPRPRPPKIPRP"
Reply: satisfied

Task item: Form field: shrunken log2 fold change at least 0.006? Entry: "RRIRCRPPRLPRPRPRPMIGPRP"
Reply: not satisfied

Task item: Form field: shrunken log2 fold change at least 0.006? Entry: "RRIRFRPPRLPRPRPRPTRKPRP"
Reply: satisfied

Task item: Form field: shrunken log2 fold change at least 0.006? Entry: "RRIRQRPPRLPRPRPRPNVQPRP"
Reply: satisfied

Task item: Form field: shrunken log2 fold change at least 0.006? Entry: "RRIRSRPPRLPRPRPRPKIDPRP"
Reply: not satisfied

Task item: Form field: shrunken log2 fold change at least 0.006? Entry: "RRIRPRPPRLPRPRPRPIVGPRP"
Reply: not satisfied

Task item: Form field: shrunken log2 fold change at least 0.006? Entry: "RRIRGRPPRLPRPRPRPMPVPRP"
Reply: satisfied

Task item: Form field: shrunken log2 fold change at least 0.006? Entry: "RRIRLRPPRLPRPRPRPKPWPRP"
Reply: satisfied

Task item: Form field: shrunken log2 fold change at least 0.006? Entry: "RRIRLRPPRLPRPRPRPWNCPRP"
Reply: not satisfied

Task item: Form field: shrunken log2 fold change at least 0.006? Entry: "RRIRKRPPRLPRPRPRPQACPRP"
Reply: not satisfied

Task item: Form field: shrunken log2 fold change at least 0.006? Entry: "RRIRNRPPRLPRPRPRPRGPPRP"
Reply: satisfied

Task item: Form field: shrunken log2 fold change at least 0.006? Entry: "RRIRGRPPRLPRPRPRPNQRPRP"
Reply: satisfied

Task item: Form field: shrunken log2 fold change at least 0.006? Entry: "RRIRPRPPRLPRPRPRPMEPPRP"
Reply: not satisfied

Task item: Form field: shrunken log2 fold change at least 0.006? Entry: "RRIRMRPPRLPRPRPRPFCRPRP"
Reply: satisfied

Task item: Form field: shrunken log2 fold change at least 0.006? Entry: "RRIRVRPPRLPRPRPRPPPRPRP"
Reply: satisfied
